System: ECHCG (Echinochloa crus-galli)
Experiment: Preemergence herbicidal evaluation
Format: in vivo, (L.) Beau
Conditions: Rate 0.1250 kg/ha; rated 4-5 weeks after treatment
experimental-endpoint: Preemergence herbicidal rating ECHCG
Form: value (number only, do not type unit).

Prompt: Sample C[C@@H]1OC(c2nsc3ccc(-n4c(=O)cc(C(F)(F)F)n(C)c4=O)cc23)O[C@@H]1C (stereo partly drawn) [Compound 47] — what was its Preemergence herbicidal rating ECHCG?
Completion: 9.0

Prompt: Query: Preemergence herbicidal rating ECHCG; subject: C=CC1COC(c2nsc3ccc(-n4c(=O)cc(C(F)(F)F)n(C)c4=O)cc23)O1 (stereo not drawn) [Compound 76]
Completion: 9.0

Prompt: Requested read-out: Preemergence herbicidal rating ECHCG. Entry: Cn1c(C(F)(F)F)cc(=O)n(-c2ccc3snc(-c4sccc4Cl)c3c2)c1=O [Compound 52]
Completion: 8.5

Prompt: Given the compound CCCC1COC(c2nsc3ccc(-n4c(=O)cc(C(F)(F)F)n(C)c4=O)cc23)O1 (stereo not drawn) [Compound 77] , what is its reported Preemergence herbicidal rating ECHCG?
Completion: 9.0

Prompt: // query Preemergence herbicidal rating ECHCG value for entry COCC1COC(c2nsc3ccc(-n4c(=O)cc(C(F)(F)F)n(C)c4=O)cc23)O1 (stereo not drawn) [Compound 64]
Completion: 9.0

Prompt: Need Preemergence herbicidal rating ECHCG, item C[C@@H]1C[C@H](C)OC(c2nsc3cc(F)c(-n4c(=O)cc(C(F)(F)F)n(C)c4=O)cc23)O1 (stereo partly drawn) [Compound 67]
Completion: 9.0

Prompt: Can you look up the measured Preemergence herbicidal rating ECHCG of Cn1c(C(F)(F)F)cc(=O)n(-c2ccc3snc(-c4sccc4CBr)c3c2)c1=O [Compound 80] for me?
Completion: 2.0

Prompt: I am curious: what Preemergence herbicidal rating ECHCG value has been reported for CC(C)C1COC(c2nsc3ccc(-n4c(=O)cc(C(F)(F)F)n(C)c4=O)cc23)=N1 (stereo not drawn) [Compound 74] ?
Completion: 2.0

Prompt: If you can, please state the reported Preemergence herbicidal rating ECHCG value of Cn1c(C(F)(F)F)cc(=O)n(-c2ccc3snc(C4=NCCO4)c3c2)c1=O [Compound 75] .
Completion: 1.0

Prompt: Query: Preemergence herbicidal rating ECHCG; subject: Cn1c(C(F)(F)F)cc(=O)n(-c2ccc3snc(-c4nccs4)c3c2)c1=O [Compound 53]
Completion: 4.5

Prompt: Which Preemergence herbicidal rating ECHCG value belongs to Cn1c(C(F)(F)F)cc(=O)n(-c2ccc3snc(C4OCCO4)c3c2)c1=O [Compound 45] ?
Completion: 9.0

Prompt: Fill in: Preemergence herbicidal rating ECHCG of CCOc1cc(OCC)nc(-c2nsc3ccc(-n4c(=O)cc(C(F)(F)F)n(C)c4=O)cc23)n1 [Compound 43] is ___
Completion: 0.0

----------
Tested on: CASOB (Cassia obtusifolia)
Assay: Postemergence herbicidal evaluation
Assay type: in vivo, L.
Conditions: rate 0.0320 kg/ha
Would you please tag the item condition met when its Postemergence herbicidal rating, CASOB is 1 or above, and condition not met when it is below?

Prompt: Is Postemergence herbicidal rating, CASOB at least 1? Consider `Cc1nnc(-c2nsc3ccc(-n4c(=O)cc(C(F)(F)F)n(C)c4=O)cc23)s1`
Completion: condition not met

Prompt: Hi team, for `Cc1ccsc1-c1nsc2ccc(-n3c(=O)cc(C(F)(F)F)n(C)c3=O)cc12` , is the recorded Postemergence herbicidal rating, CASOB at or above 1?
Completion: condition met

Prompt: Confirm if Postemergence herbicidal rating, CASOB reported for the compound `Cn1c(C(F)(F)F)cc(=O)n(-c2ccc3snc(C4OCC(C)(C)CO4)c3c2)c1=O` is 1 or above.
Completion: condition met

Prompt: Postemergence herbicidal rating, CASOB >= 1 for Cn1c(C(F)(F)F)cc(=O)n(-c2ccc3snc(C4OCCCS4)c3c2)c1=O (centres unmarked) ?
Completion: condition met

Prompt: Is the recorded value of Postemergence herbicidal rating, CASOB equal to or greater than 1 for this compound? `Cc1cccnc1-c1nsc2cc(F)c(-n3c(=O)cc(C(F)(F)F)n(C)c3=O)cc12`
Completion: condition met

Prompt: For this compound, is measured Postemergence herbicidal rating, CASOB 1 or higher? `CCOc1cc(OCC)nc(-c2nsc3ccc(-n4c(=O)cc(C(F)(F)F)n(C)c4=O)cc23)n1`
Completion: condition met

Prompt: Kindly determine if Postemergence herbicidal rating, CASOB recorded for `Cn1c(C(F)(F)F)cc(=O)n(-c2ccc3snc(C(SCCO)SCCO)c3c2)c1=O` is above or exactly 1.
Completion: condition not met
